Test system: Ba/F3-ITD + 842 (ITD + Y842C)
Experiment: Antiproliferative activity (Table 6)
Assay type: cell-based, Murin
Conditions: Ba/F3-ITD + 842 (ITD + Y842C); 48 h (Gilteritinib); read-out: IC50
parameter_measured: IC50 (nM)

- molecule: "CCc1nc(C(N)=O)c(Nc2ccc(N3CCC(N4CCN(C)CC4)CC3)c(OC)c2)nc1NC1CCOCC1 [Gilteritinib, reference compound]"
  tested_system: "Ba/F3-ITD + 842 (ITD + Y842C)"
  units_symbol: "nM"
  value: 44.7

* * *

Test system: Ramos
Experiment: Cytotoxicity, MTS cell viability
Format: cell-based
Settings: Homo sapiens, 72 h, Burkitt's, 3 days MTS
parameter_measured: IC50 (nM)

- compound: "Cc1cnc(-c2ccc(-c3ccc(NC(=O)Nc4c(F)cc(F)cc4F)cc3F)c3c2C(=O)NC3)[nH]1 [Compound 7]"
  tested_system: "Ramos"
  parameter_measured: "IC50"
  units_symbol: "nM"
  value: 18.4

* * *

System: Ba/F3 cells transfected with FLT3 ITD-F691L
Experiment: Cytotoxicity in isogenic transfected Ba/F3 cells (Table 4)
Type: cell-based, Murin
Details: Mus musculus, BaF3; n = 3; read-out: IC50 in Transfected Ba/F3 cells, FLT3 ITD-F691L
parameter_measured: IC50 (nM)

- molecule: "CC1(COc2ccc3c(c2)ncn3-c2ccc3cccc(N4CCC(N)CC4)c3n2)COC1"
  tested_system: "Ba/F3 cells transfected with FLT3 ITD-F691L"
  parameter_measured: "IC50"
  units_symbol: "nM"
  value: 258
- molecule: "CCc1nc(C(N)=O)c(Nc2ccc(N3CCC(N4CCN(C)CC4)CC3)c(OC)c2)nc1NC1CCOCC1 [Gilteritinib, reference compound]"
  tested_system: "Ba/F3 cells transfected with FLT3 ITD-F691L"
  parameter_measured: "IC50"
  units_symbol: "nM"
  value: 98.4

* * *

Tested on: Ba/F3 cells transfected with FLT3 ITD-D835Y
Assay: Cytotoxicity in isogenic transfected Ba/F3 cells (Table 4)
Assay type: cell-based, Murin
Conditions: Mus musculus, BaF3, read-out: IC50 in Transfected Ba/F3 cells, FLT3 ITD-D835Y

- compound: "Cc1cnc(-c2ccc(-c3ccc(NC(=O)Nc4c(F)cc(F)cc4F)cc3F)c3c2C(=O)NC3)[nH]1 [Compound 7]"
  IC50: "19.3 nM"
